Multi-source literature compilation: Ki on Vasopressin V1b receptor (Homo sapiens).

Here is how some compounds turned out for Ki.
// query Please tell me: Ki of CCOc1ncccc1C1(Nc2ccc(C(=O)N3CCN(C)CC3)cc2)C(=O)N(S(=O)(=O)c2ccc(OC)cc2)c2ccc(I)cc21 (stereo not drawn) , system Vasopressin V1b receptor (Homo sapiens)?
// result 1 to 10 nM

// query Please state recorded Ki (tested on Vasopressin V1b receptor (Homo sapiens)) of CCOc1ccccc1C1(N2CCN(c3ccncc3)CC2)C(=O)N(S(=O)(=O)c2ccc(OC)cn2)c2ccc(C#N)cc21 (racemic)
// result < 10 nM

// query Look up Ki with Vasopressin V1b receptor (Homo sapiens) for this compound: CCOc1c(OC)cccc1C1(N2CCN(c3ccnc(C)c3)CC2)C(=O)N(S(=O)(=O)c2ccc(OC)cn2)c2ccc(C#N)cc21 (racemic)
// result < 10 nM

// query Record CCOc1ccccc1C1(N2CCN(c3ccncc3C)CC2)C(=O)N(S(=O)(=O)c2cccc3cccnc23)c2ccc(C#N)cc21 (racemic) : what is its Ki with Vasopressin V1b receptor (Homo sapiens)?
// result 10 to 50 nM

***
// query Form field - read-out: Ki; system: Vasopressin V1b receptor (Homo sapiens); submitted item: CCOc1ncccc1C1(NC(=O)N2CCC(C3CCN(C)CC3)CC2)C(=O)N(S(=O)(=O)c2ccc(OC)cc2OC)c2ccc(C#N)cc21 (racemic)
// result < 10 nM

// query Record lookup: for Vasopressin V1b receptor (Homo sapiens), what Ki belongs to COc1ccccc1C(C(=O)N1CCN(C2CCN(C)CC2)CC1)n1c(=O)n(S(=O)(=O)c2cccc3cccnc23)c2ccc(Cl)cc21 (stereo not drawn) ?
// result 500 to 10000 nM
